These entries and their values trace back to PubChem BioAssay (NCI).

# System: DMS 114 small cell lung
# assayOverview: NCI tumour cell line growth inhibition, 48 h
observationType: TGI

> print(dat)
                                   molecule            targetofassay  observedresult
1  N#CC(NC12CC3CC(CC(C3)C1)C2)c1ccccc1C(F)(F)F (centres undefined)  DMS 114 small cell lung        > 100 µM
2  Cc1ccc(C2=C(c3ccccc3)C(Br)(c3ccc(C)cc3)C(c3ccccc3)=C2c2ccc(C)cc2)cc1  DMS 114 small cell lung        > 100 µM
3              Cc1ccn2c(c1)nc1nc3ccccc3nc12  DMS 114 small cell lung        > 100 µM
4  CC1(C)C(=O)N(CCCCCCN2C(=O)C(C)(C)c3ccccc32)c2ccccc21  DMS 114 small cell lung         43.4 µM

* * *

# System: CAKI-1 renal
# assayOverview: NCI tumour cell line growth inhibition, 48 h
Measured TGI by item
observationType: TGI

> print(dat)
                                   compound  observedresult
1  Cc1cccc(N2CCN(C(=S)c3ccc4c(c3)OCO4)CC2)c1        > 100 µM
2  CCOP(C)(=O)C(N)Cc1ccc(OC)c(OC)c1 (stereo unspecified)        > 100 µM
3  CC(=O)OC(/C=C/c1ccccc1)=C(OC(C)C)/C1=C(\c2ccccc2)SCCCSC1=O        > 100 µM
4  C=CC(CCc1ccc(C(=O)OCC)cc1)c1c(N)nc(N)[nH]c1=O (stereo unspecified)        > 100 µM
5  COc1nc2ccccc2cc1-c1nc2c(cnn2-c2ccc(Br)cc2)c(=O)[nH]1         > 50 µM
6  O=C1/C(=C/c2ccc([N+](=O)[O-])cc2)C(=O)N(c2ccccc2)C1c1ccccc1 (stereo unspecified)         > 10 µM

* * *

The entries below are paired with their reported TGI.
# Tested on: M14 melanoma
# assayOverview: NCI tumour cell line growth inhibition, 48 h
observationType: TGI

compound	observedResult
NC(N)=NCCC[C@H](N)C(=O)NCC(=O)N[C@@H](CC(=O)O)c1ncc(NC(=O)C(F)(F)F)o1	> 25 µM
COC1=CC(=O)c2nc(-c3cccc(C)n3)[nH]c2C1=O	> 100 µM
N#C/C(=C1C=C(Br)/C(=N\O)C=C\1Cl)c1cccc2ccccc12	11.7 µM
COc1cc(/C=C/c2cc(/C=C/c3ccc(O)c(OC)c3)n(C(=O)Nc3ccc(F)c(Cl)c3)n2)ccc1O	1.59 µM
Cc1cccc(NC(=O)/C(=N\NC(C)(C)C)C2NC(=S)NC2=O)c1C (stereo not given)	> 100 µM
COc1ccc(Cn2cc3c(c2-c2ccccc2)CC(C)(C)c2cnoc2-3)cc1	> 100 µM
Cc1ccc(C(=O)CN(/C=C/C(=O)C(F)(F)F)c2ccc(S(N)(=O)=O)cc2)cc1	> 100 µM
COC(=O)C1=CNC=C(C(=O)OC)C1C1=CC(=O)C(C)=CC1=O	29.1 µM
Cc1cc(C(=O)Nc2ncc(Cc3cccc(C(F)(F)F)c3)s2)c2ccccc2n1	> 100 µM
CSc1ncnc2c1ncn2C1CC(Oc2ccc(C)cc2)C(COc2ccc(C)cc2)O1 (stereo not given)	> 100 µM
NS(=O)(=O)c1ccc(N=Nc2c(O)[nH]c3ccc(-c4cnco4)cc23)cc1	> 25 µM
COC(=O)C1=C(C)N(NC(=O)OC(C)(C)C)C(=O)C1=P(c1ccccc1)(c1ccccc1)c1ccccc1	> 100 µM
COC(=O)/C(=N\Nc1nnc(C)n1N)C(C#N)c1ccc(Cl)cc1 (stereo not given)	> 100 µM
OC[C@H]1CCCC1O (stereo not given in full)	> 100 µM
CC(C)(C)c1ccc2c(c1)S(=O)(=O)Nc1ccccc1NS(=O)(=O)c1cc(C(C)(C)C)ccc1OCCOCCOCCO2	> 100 µM
CC(=O)[O-].CCN(CC)c1ccc(C=NCCN=Cc2ccc(N(CC)CC)cc2[O-])c([O-])c1.[Mn+3]	35.5 µM
N=C1C(c2nc3ccccc3s2)=C(O)CN1c1cc(C(F)(F)F)ccc1Cl	11.1 µM
O=C(NI1OC(=O)c2ccccc21)c1ccc(Cl)cc1	> 100 µM
NC(N)=N/N=C(\c1nc2ccc([N+](=O)[O-])cc2[nH]c1=O)C(O)c1ccc([N+](=O)[O-])cc1 (stereo not given)	> 100 µM
Cc1nc(-c2cc3cc([N+](=O)[O-])ccc3oc2=O)cs1	> 100 µM
O=C(O)C1OC(n2cc(F)c(=O)[nH]c2=O)CC1O (stereo not given)	> 100 µM
Cn1c2c(c3ccccc31)CC1c3c(c4ccccc4n3C)CC21 (stereo not given)	> 100 µM
c1ccc(CNn2nnc3ccccc32)cc1	> 100 µM
CNc1ccc(C(=O)CC(O)CCC(C)C2OC(=O)CC(O)CC(=O)CC(O)CC(O)CC(O)CC(O)CC3(O)CC(O)C(C(=O)OC)C(CC(O[C@@H]4O[C@H](C)[C@@H](O)[C@H](N)[C@@H]4O)/C=C/C=C/C=C/C=C/C=C/C=C/C=C/C2C)O3)cc1 (stereo not given in full)	7.32 µM
COC1(OC)C2(Cl)C(Cl)=C(Cl)C1(Cl)C1C=CC=CC12 (stereo not given)	> 100 µM
O=C(O)c1ccc([N+](=O)[O-])c2cc3cnccc3nc12	37.2 µM
COc1cccc(-c2ccc3c4c2O[C@H]2C(=O)CC[C@@]5(O)[C@@H](C3)N(CC3CC3)CC[C@]425)c1	28.1 µM
C[N+](C)(C)CC1CCCCCCCCCCC1=O (stereo not given)	> 100 µM
O=C1C(CN2CCCCC2)CCC1CN1CCCCC1 (stereo not given)	32 µM
CCOC(=O)C(=Cc1[nH]c2ccccc2c1-c1c[nH]c2ccccc12)C(=O)OCC	21.7 µM

* * *

# Test system: SNB-75 CNS
# assayOverview: NCI tumour cell line growth inhibition, 48 h
Measured TGI by item
observationType: TGI

> print(dat)
                                   molecule  observationtype  observedresult
1  O=C1/C(=C/c2ccc([N+](=O)[O-])cc2)C(=O)N(c2ccccc2)C1c1ccccc1 (stereo not given)              TGI         > 10 µM
2                 c1ccc(CNn2nnc3ccccc32)cc1              TGI        > 100 µM
3  O=c1[nH]nc(-c2ccccc2)c2[nH]c3c4ccccc4ccc3c12              TGI        > 100 µM
4  O=C(Cc1ccccc1)NN1C(=O)C(Cl)C1c1cc(Br)ccc1O (stereo not given)              TGI         34.4 µM
5  Cc1cn(C2CC(O)C(CO)O2)c(=O)n2nnnc12 (stereo not given)              TGI        > 100 µM

* * *

# Tested on: SN12C renal
# assayOverview: NCI tumour cell line growth inhibition, 48 h; in the data active = GI50 below about 0.43 µM; inactive = the rest
Outcomes: active, inactive

compound	classAssignment
CCCCC(O)(c1ccc(Cl)cc1)C(CN1CCOCC1)c1ccc(Cl)cc1 (stereo not given)	inactive
COc1cc(-c2ccc3c(c2)NC(=O)/C3=C\c2ccc[nH]2)ccc1O	active
Cc1cc(S(=O)(=O)Nc2nnc(-c3ccccc3)c(-c3ccccc3)n2)c(SCC(N)=O)cc1Cl	inactive
COc1nc2ccccc2cc1-c1nc2c(cnn2-c2ccc(Br)cc2)c(=O)[nH]1	active
c1cc(CNC23CC4CC(CC(C4)C2)C3)cc(C[N+](Cc2cccc(CNC34CC5CC(CC(C5)C3)C4)c2)(Cc2cccc(CNC34CC5CC(CC(C5)C3)C4)c2)Cc2cccc(CNC34CC5CC(CC(C5)C3)C4)c2)c1 (stereo not given)	inactive

* * *

TGI: recorded values
# System: MALME-3M melanoma
# assayOverview: NCI tumour cell line growth inhibition, 48 h
observationType: TGI

> print(dat)
                                   molecule      targetofassay  observedresult
1  Cn1c2c(c3ccccc31)CC1c3c(c4ccccc4n3C)CC21 (stereo unspecified)  MALME-3M melanoma        > 100 µM
2  CCOP(C)(=O)C(N)Cc1ccc(OC)c(OC)c1 (stereo unspecified)  MALME-3M melanoma        > 100 µM
3  Cc1cn(C2CC(O)C(CO)O2)c(=O)n2nnnc12 (stereo unspecified)  MALME-3M melanoma        > 100 µM
4  COc1cc(/C=C2/C[C@H]3[C@@H]4CC=C5C[C@@H](O)CC[C@]5(C)[C@H]4CC[C@]3(C)NC2=O)cc(OC)c1OC  MALME-3M melanoma         32.8 µM
5  COc1cc(C(=O)N(Cc2cccnc2)C(=S)N(Cc2cccnc2)C(=O)c2cc(OC)c(OC)c(OC)c2)cc(OC)c1OC  MALME-3M melanoma        > 100 µM
6  COC(=O)/C(=N\Nc1nnc(C)n1N)C(C#N)c1ccc(Cl)cc1 (stereo unspecified)  MALME-3M melanoma        > 100 µM
